test system: iCell cardiomyocytes (human iPSC-derived cardiomyocytes); test: High-content imaging of cytotoxicity and mitochondrial integrity in iPSC-CMs; format: cell-based; details: Homo sapiens, Cardiomyocyte, 1.5 h, 0.01 µM; 0.00 µM = 100.00; read-out: cm.mii.90min
Counter-ions that a name gives are not always drawn.
Measured Attribute: activity at 0.01 µM (%)
Give just the numeric value; % need not be written.

Which activity at 0.01 µM is listed for COc1ccc(-c2ccc(Cl)cc2)cc1 [4'-OMe PCB3] ?
107

Try this molecule too: Oc1ccc(-c2ccc(Cl)cc2)cc1 [4'-OH PCB3]
97

Try this molecule too: O=S(=O)(O)Oc1cc(-c2ccccc2)ccc1Cl [3-yl PCB 3 sulfate]
110

Try this molecule too: Oc1ccccc1-c1ccc(Cl)cc1 [2'-OH PCB3]
111
